Molecular target: JAK3 JH1 JH2 (human)
Experiment: radiometric filter-binding kinase assay, Kinase HotSpot
Conditions: compound 0.5 µM; ATP 10 µM
Parameter residual activity: see the listing below.
Provide the reading as a plain figure in %.

A selection of reference data follows.
>>> observed_result("O=C1Nc2ccc(Br)cc2/C1=C\\c1cc2c([nH]1)CCCC2")
89.3
>>> observed_result("COc1cc(Nc2c(C#N)cnc3cc(OCCCN4CCN(C)CC4)c(OC)cc23)c(Cl)cc1Cl")
88.5

**Query** Recorded residual activity for Cc1cccc(-c2nc(C(C)(C)C)[nH]c2-c2ccc3c(c2)OCO3)n1 , please?
**Result** 92.6
